assay: Cytotoxicity measurement; format: cell-based; details: human, HEp-2 cells
measurement.label: CC50 at 24 h (µM)
Dear colleague, please return just the value in µM, with no unit written.

[[record]]
compound = "CC(C)(C)C(=O)OCn1c(=O)c(C#Cc2ccc3c4cccc5cccc(c6cccc2c63)c54)cn(CC(=O)O)c1=O [cm1pUY11 (III)]"
measured_result = 45

[[record]]
compound = "O=c1[nH]c(=O)n([C@@H]2O[C@H](CO)[C@@H](O)[C@H]2O)cc1C#Cc1ccc2c3cccc4cccc(c5cccc1c52)c43 [rUY11 (IV), 5-(Perylen-3-ylethynyl)uridine]"
measured_result = 599


// moving on: another record for CC50 at 24 h
For reference, reported CC50 at 24 h for O=c1[nH]c(=O)n([C@H]2C[C@H](O)[C@@H](CO)O2)cc1C#Cc1ccc2c3cccc4cccc(c5cccc1c52)c43 [dUY11 (I), 5-(perylen-3-ylethynyl)-2′-deoxy-uridine] stands at 598

Numbers sourced from paper PMC7305479.
